assayed_system: microsomal 11β-HSD1 (Homo sapiens, UniProt P28845)
Sequence (P28845 whole entry): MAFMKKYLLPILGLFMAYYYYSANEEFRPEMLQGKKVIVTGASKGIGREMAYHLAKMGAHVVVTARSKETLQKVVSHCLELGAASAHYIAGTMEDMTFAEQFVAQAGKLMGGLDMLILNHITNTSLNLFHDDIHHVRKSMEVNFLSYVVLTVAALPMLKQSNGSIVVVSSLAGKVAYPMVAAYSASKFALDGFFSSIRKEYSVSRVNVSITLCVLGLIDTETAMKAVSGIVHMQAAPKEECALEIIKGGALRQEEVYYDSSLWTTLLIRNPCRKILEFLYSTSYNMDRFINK
pIC50: −log10 of the molar value.
Here, each record is paired with measured pIC50 data.

Solved cases (3 shown):
>  <molecule>
CC(C)CC1(CO)CN(CC23CC4CC(CC(C4)C2)C3)C(=O)N1 (racemic)

>  <assay_endpoint>
pIC50

>  <result>
6.00 to 7.30

$$$$
>  <molecule>
O=C1OC(c2cccc(Br)c2)CN1C1C2CC3CC(C2)CC1C3 (racemic)

>  <assay_endpoint>
pIC50

>  <result>
> 7.30

$$$$
>  <molecule>
O=C1N[C@@H](c2ccccc2)CN1C12CC3CC(CC(C3)C1)C2

>  <assay_endpoint>
pIC50

>  <result>
> 7.30

$$$$

Next item in the queue.
State pIC50 on microsomal 11β-HSD1 (Homo sapiens, UniProt P28845). Entry: CC(C)(C)[C@H]1CN(C2C3CC4CC(C3)CC2C4)C(=O)O1 (stereo partly shown)
> 7.30
